Listed next: entries and their corresponding Retained Cytb562-StrepII per immobilized mutein.
measured-target: T1, cytochrome b562 with C-terminally fused Strep-tagII (E. coli)
T1 construct: also called Cytb562-StrepII; Cytb562-StrepIII
protocol-text: affinity chromatography, overloaded Sepharose column, washed, biotin elution
Note: unit µg/µg is implicit; provide only the numeric part.

[
  {
    "binder": "mutein“1”-m41 (designed binder, Library 3 clone on mutein “1”) EAGITGTWYNQLGSTFIVTAGADGALTGTYVTARGNAESRYVLTGRYDSAPATDGSGTALGWTVAWKNNYRNAHSATTWSGQYVGGAEARINTQWLLTSGTTEAWYSTLVGHDTFTKVKPSAAS",
    "reading": 0.2
  }
]

Lab note: next binder to report on.
Query: Quote Retained Cytb562-StrepII per immobilized mutein reported for mutein“1”-m301 (designed binder, Library 7 clone on mutein “1”, 118 and 119 deleted) EAGITGTWYNQLGSTFIVTAGADGALTGTYVTARGNAESRYVLTGRYDSAPATDGSGTALGWTVAWKNNYRNAHSATTWSGQYVGGAEARINTQWLLTSGTTEHWMSTLVGHDTFTKVKPSAAS please.
Result: 0.28
